Test system: Klebsiella pneumoniae
Conditions: Concentration 20 uM; ASSAY_TEST Inhibition of Bacterial Growth; detection method Absorption (OD600); MEDIA CAMHB; plate type 384well; NBS; CORNING #3640; time 18 hr
Description: Antibacterial activity against Klebsiella pneumoniae MDR ATCC 70063 (CO-ADD:GN_003); MIC in CAMBH media using NBS plates, by OD(600)
Measured potencies and affinities stand elsewhere.
measured property: Inhibition (%)
Please state the figure in %; there is no need to write the unit.

Specify measured Inhibition for O=C(O)CCC(=O)c1ccc2ccc3cccc4ccc1c2c34 .
28.79

Specify measured Inhibition for Oc1nccc(SCc2ccc(Cl)cc2Cl)n1 .
11.54

Specify measured Inhibition for COc1cc(CCC(=O)O)on1 .
8.1

Specify measured Inhibition for CCC(C)NC(=O)c1cccc(C)c1 (configuration not stated) .
13.06

Specify measured Inhibition for O=C(CC1(O)CCCCC1)OC1CCCC1 .
-7.74

Specify measured Inhibition for O=C1c2ccccc2C(=O)c2[nH]cnc21 .
13.37

Specify measured Inhibition for N#CC1=C2CCCCC2(O)NC1=O (configuration not stated) .
2.61

Specify measured Inhibition for CC1(C)N=C(N)N=C(N)N1c1cccc(CN)c1.CCS(=O)(=O)O .
13.8

Specify measured Inhibition for CSc1nc(Cl)c(Br)c(Nc2cnc(O)nc2O)n1 .
4.64

Specify measured Inhibition for CCOc1ccc(/C=C2\CCc3ccccc3C2=O)cc1 .
4.93

Specify measured Inhibition for CSc1ccc2c(c1)C(N1CCN(C)CC1)Cc1ccccc1S2.O=C(O)/C=C\C(=O)O (configuration not stated) .
5.53

Specify measured Inhibition for O=C(O)CCNC1CCCCC1 .
12.82

Specify measured Inhibition for Cn1c2c(sc1=O)CCC2 .
16.07

Specify measured Inhibition for CCCN=C(S)Nc1ccccc1 .
7.36

Specify measured Inhibition for O=C1CCCC1C(=O)Nc1ccc2ccccc2c1 (configuration not stated) .
17.7

Specify measured Inhibition for CNc1nc(SC)n(C)c(=O)c1N=O .
9.07

Specify measured Inhibition for C=C1CC2(OC1=O)c1ccccc1CCc1ccccc12 .
9.76

Specify measured Inhibition for CCn1c2ccccc2nc2cc3c(cc21)c(Cl)c(=O)c1ccccc13 .
12.19

Specify measured Inhibition for C=CCN1CCN(c2ccncc2S(=O)(=O)N2CCN(C)CC2)CC1 .
7.93

Specify measured Inhibition for Cc1cccc2cc3cccc(C)c3nc12 .
1.32

Specify measured Inhibition for O=C(/C=C/c1ccccc1)CC(c1ccccc1)N1CCOCC1 (configuration not stated) .
21.53

Specify measured Inhibition for CC1=NC2=CC=CC3=NC(C(Cl)(Cl)Cl)=NC(=N1)N23 .
11.94

Specify measured Inhibition for Cc1c(NC(=O)Nc2c(Cl)cccc2Cl)c(=O)n(-c2ccccc2)n1C .
8.26

Specify measured Inhibition for CCC(CC)NCCOC(=O)c1ccc([N+](=O)[O-])cc1 .
5.67

Specify measured Inhibition for Cc1cc(OCCCCOc2ccc(C#N)cc2)ccc1[N+](=O)[O-] .
7.99

Specify measured Inhibition for CC(=O)O.COc1ccc2nccc(/C=C/c3ccnc4ccc(OC)cc34)c2c1 .
6.2

Specify measured Inhibition for O=C1C(CO)C(CO)C(CO)C1CO (configuration not stated) .
2.22

The origin of these recorded values is ChEMBL document CHEMBL4296182.
